Just for reference, paper PMC6832141 is where these values come from.

# method notes: Lipophilicity, logD7.4 by HPLC method (Donovan and Pescatore)
# Format: physicochemical
# settings: HPLC column ODP-50 4B (Shodex Asahipak 50 × 4.6 mm); pH 7.4, HPLC system 2, MeOH/PBS gradient
# Protocol: The lipophilicity of all synthesized compounds was determined as logD7.4HPLC value (Table 1) using an HPLC method originally described by Donovan and Pescatore. Column chromatography was performed using silica gel (mesh size 40–63 µm). […] The products were monitored by an UV detector at 254 nm and purity of all compounds exceeded 95% as determined by analytical HPLC analysis (system 1 or system 3), unless otherwise stated. […]
Attribute: chromatographic logD
measured metric: chromatographic logD

| smiles string | measured metric | reported |
| --- | --- | --- |
| CCC(=O)NS(=O)(=O)c1ccc(-c2c(-c3ccc(F)cc3)c3cccc4ccn2c43)cc1 | chromatographic logD | 2.3 |
| NS(=O)(=O)c1ccc(-c2c(-c3ccc(F)cc3)c3cccc4ccn2c43)cc1 | chromatographic logD | 4.64 |
| CCC(=O)NS(=O)(=O)c1ccc(-c2c(-c3ccccc3)c3cccc4c3n2CC4)cc1 | chromatographic logD | 2.05 |
| NS(=O)(=O)c1ccc(-c2c(-c3ccc(Cl)cc3)c3cccc4c3n2CC4)cc1 | chromatographic logD | 4.9 |
| Cc1ccc(-c2c(-c3ccc(S(N)(=O)=O)cc3)n3c4c(cccc24)CC3)cc1 | chromatographic logD | 4.56 |
| NS(=O)(=O)c1ccc(-c2c(-c3ccc(F)cc3)c3cccc4c3n2CC4)cc1 | chromatographic logD | 4.53 |
| CCC(=O)NS(=O)(=O)c1ccc(-c2c(-c3ccccc3)c3cccc4ccn2c43)cc1 | chromatographic logD | 2.24 |

====

// ovine COX-1 (Ovis aries) pIC50 records
pIC50: −log10 of the molar value.
measured metric: pIC50

| smiles string | measured metric | reported |
| --- | --- | --- |
| Cc1ccc(-c2c(-c3ccc(S(N)(=O)=O)cc3)n3ccc4cccc2c43)cc1 | pIC50 | < 4.00 |
| NS(=O)(=O)c1ccc(-c2c(-c3ccc(Cl)cc3)c3cccc4c3n2CC4)cc1 | pIC50 | 4.82 |
| CCC(=O)NS(=O)(=O)c1ccc(-c2c(-c3ccc(Cl)cc3)c3cccc4c3n2CC4)cc1 | pIC50 | < 4.00 |
| CCC(=O)NS(=O)(=O)c1ccc(-c2c(-c3ccc(F)cc3)c3cccc4c3n2CC4)cc1 | pIC50 | < 4.00 |
| NS(=O)(=O)c1ccc(-c2c(-c3ccc(Cl)cc3)c3cccc4ccn2c43)cc1 | pIC50 | < 4.00 |

====

Entries and their measured SI (selectivity index) follow.
# target or system: human COX-2 (Homo sapiens)
# Construct: purchased Cayman Chemical 700100
# Sequence (P35354 18-604): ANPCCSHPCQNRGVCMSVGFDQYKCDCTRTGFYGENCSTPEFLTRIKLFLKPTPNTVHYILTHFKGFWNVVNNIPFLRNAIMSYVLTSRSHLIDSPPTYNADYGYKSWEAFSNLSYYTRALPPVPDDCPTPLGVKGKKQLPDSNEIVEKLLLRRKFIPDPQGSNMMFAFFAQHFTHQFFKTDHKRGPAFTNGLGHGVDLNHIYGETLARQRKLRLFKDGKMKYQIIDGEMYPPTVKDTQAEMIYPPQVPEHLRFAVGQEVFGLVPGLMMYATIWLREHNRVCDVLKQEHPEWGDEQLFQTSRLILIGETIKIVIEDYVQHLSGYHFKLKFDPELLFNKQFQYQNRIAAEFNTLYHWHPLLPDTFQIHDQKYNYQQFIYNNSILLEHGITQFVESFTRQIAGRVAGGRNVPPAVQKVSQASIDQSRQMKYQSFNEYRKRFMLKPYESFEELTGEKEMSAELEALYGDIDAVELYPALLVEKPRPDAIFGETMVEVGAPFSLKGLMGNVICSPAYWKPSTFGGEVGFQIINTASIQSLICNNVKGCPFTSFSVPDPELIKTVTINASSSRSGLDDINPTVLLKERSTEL
# method notes: COX Fluorescent Inhibitor Screening Assay Kit (Cayman 700100), COX-2
# Format: biochemical
# settings: SI = IC50 (COX-1)/IC50 (COX-2)
measured metric: SI (selectivity index)

| smiles string | measured metric | reported |
| --- | --- | --- |
| NS(=O)(=O)c1ccc(-c2c(-c3ccc(F)cc3)c3cccc4c3n2CC4)cc1 | SI (selectivity index) | 85 |
| Cc1ccc(-c2c(-c3ccc(S(N)(=O)=O)cc3)n3c4c(cccc24)CC3)cc1 | SI (selectivity index) | 237 |
| Cc1ccc(-c2c(-c3ccc(S(N)(=O)=O)cc3)n3ccc4cccc2c43)cc1 | SI (selectivity index) | >1087 |
| NS(=O)(=O)c1ccc(-c2c(-c3ccc(Cl)cc3)c3cccc4c3n2CC4)cc1 | SI (selectivity index) | 144 |
| CCC(=O)NS(=O)(=O)c1ccc(-c2c(-c3ccc(Cl)cc3)c3cccc4c3n2CC4)cc1 | SI (selectivity index) | >3.8 |
| CCC(=O)NS(=O)(=O)c1ccc(-c2c(-c3ccc(C)cc3)c3cccc4ccn2c43)cc1 | SI (selectivity index) | >2.9 |
| NS(=O)(=O)c1ccc(-c2c(-c3ccc(Cl)cc3)c3cccc4ccn2c43)cc1 | SI (selectivity index) | >1136 |
| CCC(=O)NS(=O)(=O)c1ccc(-c2c(-c3ccc(F)cc3)c3cccc4ccn2c43)cc1 | SI (selectivity index) | >3.8 |
| NS(=O)(=O)c1ccc(-c2c(-c3ccccc3)c3cccc4c3n2CC4)cc1 | SI (selectivity index) | 355 |
| NS(=O)(=O)c1ccc(-c2c(-c3ccc(F)cc3)c3cccc4ccn2c43)cc1 | SI (selectivity index) | >1124 |
| NS(=O)(=O)c1ccc(-c2c(-c3ccccc3)c3cccc4ccn2c43)cc1 | SI (selectivity index) | >1887 |
| CCC(=O)NS(=O)(=O)c1ccc(-c2c(-c3ccc(Cl)cc3)c3cccc4ccn2c43)cc1 | SI (selectivity index) | >9.1 |
